Data credit: patent US11008293B2

# System: MCF7
# PROTOCOL_DESCRIPTION: Antiproliferative activity on MCF7 cancer cells
# Type: cell-based
# CONDITION_NOTES: Homo sapiens
Catalogue of pIC50 readings, one per entry.
To interpret pIC50, take it as minus log10 of a concentration measured in moles per litre.

Previously resolved entries follow.
# STRUCTURE_STRING, pIC50
data = [
    ("COc1cccc(NC(=O)c2c(O)n(-c3ccccc3)c(=S)n(-c3ccccc3)c2=O)c1", 4.85),
    ("O=C(Nc1cccc(O)c1)c1c(O)n(-c2ccccc2)c(=S)n(-c2ccccc2)c1=O", 4.03),
    ("O=C(Nc1ccc(O)cc1)c1c(O)n(-c2ccccc2)c(=S)n(-c2ccccc2)c1=O", 4.18),
]

We next turn to a different compound, shown below.
# pIC50 of COc1cc(NC(=O)c2c(O)n(-c3ccccc3)c(=S)n(-c3ccccc3)c2=O)cc(OC)c1O = 4.27
